experiment: growth inhibitors of H69AR lung tumor, primary screen, human, duplicate replicates (AID 580); conditions: H69AR lung tumor cells viability, ATP luminescence, 72 h; at 10 µM; stronger effect = lower value;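 also: 100% = mean luminescence of untreated wells and 0% = no signal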
Active and inactive are the calls of the source.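 The calls were made as follows: active = viability at or under a set limit in both replicates, limit being median viability minus 3 SD (cut at about 48% in these data, passing the limit was not always enough); inconclusive = at or under the limit in just one replicate; inactive = at or above the limit in both replicates.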
Overview of reported viability across a group of compounds:

[
  {
    "COMPOUND": "CC(=O)NCCOc1cccc(OCCNC(C)=O)c1",
    "viability": "86.3% (inactive)"
  },
  {
    "COMPOUND": "Cc1cc(C(=O)CSc2nnc(-c3ccco3)o2)c(C)n1CC1COc2ccccc2O1 (stereo unspecified)",
    "viability": "89% (inactive)"
  },
  {
    "COMPOUND": "O=C1C2CC=CCC2C(=O)N1c1ccc(Cc2ccncc2)cc1 (stereo unspecified)",
    "viability": "100% (inactive)"
  },
  {
    "COMPOUND": "CN(Cc1nc(-c2ccncc2)no1)S(=O)(=O)c1ccccc1",
    "viability": "95.7% (inactive)"
  },
  {
    "COMPOUND": "Cc1ccc(S(=O)(=O)NCC(=O)N(CC(=O)NC2CCCCC2)Cc2ccco2)cc1",
    "viability": "93.9% (inactive)"
  },
  {
    "COMPOUND": "CCn1cc(C2=NCC(C)O2)c2ccccc21 (stereo unspecified)",
    "viability": "93.5% (inactive)"
  },
  {
    "COMPOUND": "CC(C)(C)OC(=O)NCCc1nnc(SCC(=O)c2ccc(Cl)cc2)o1",
    "viability": "105% (inactive)"
  },
  {
    "COMPOUND": "CCc1nnc(NC(=O)NCN2C(=O)C3C4C=CC(C4)C3C2=O)s1 (stereo unspecified)",
    "viability": "95.5% (inactive)"
  },
  {
    "COMPOUND": "CCCNS(=O)(=O)c1ccc(OCC(=O)NCc2ccco2)cc1",
    "viability": "83.7% (inactive)"
  },
  {
    "COMPOUND": "CN1CCCN=C1COC(=O)C(O)(c1ccccc1)C1CCCCC1 (stereo unspecified)",
    "viability": "91.6% (inactive)"
  },
  {
    "COMPOUND": "O=C(Nc1nc(-c2ccccc2)cs1)C1CCCCN1S(=O)(=O)c1ccccc1 (stereo unspecified)",
    "viability": "73.8% (inactive)"
  }
]

----------
test: Restrictive medium S. cerevisiae growth inhibition, OD615, pilot screen of yeast lifespan reduction project, restrictive growth control (AID 706); settings: OD615, 48 h, at 10 µM, stronger effect = higher value;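 also: modified DeaD lifespan yeast strain shifted to restrictive glucose medium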
The source made the active and inactive calls.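 How the source made its calls: active means growth inhibition above a set limit, 3 SD over mean compound inhibition, in both replicates (cut at about 43% in these data); inconclusive means above the limit in only one replicate; inactive means at or below the limit in both replicates.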

[
  {
    "COMPOUND": "Cc1nn(CCO)c(C)c1Oc1ccccc1O",
    "growth inhibition": "4.62% (inactive)"
  },
  {
    "COMPOUND": "COc1cccc(C2CC(c3cccc(C)c3)n3ncnc3N2)c1 (centres undefined)",
    "growth inhibition": "-3.84% (inactive)"
  },
  {
    "COMPOUND": "O=C1C=C(O)CC(c2ccc(Cl)cc2)C1 (centres undefined)",
    "growth inhibition": "0.79% (inactive)"
  },
  {
    "COMPOUND": "Cc1ccc(C)c(-n2c(Cc3cc(=O)[nH]c(=O)[nH]3)nnc2SC(C)C)c1",
    "growth inhibition": "11.1% (inactive)"
  },
  {
    "COMPOUND": "Cn1c(CCNC(=O)C(C)(C)C)nc2ccccc21",
    "growth inhibition": "-7.26% (inactive)"
  },
  {
    "COMPOUND": "O=C(CN(C1CCCCC1)S(=O)(=O)c1ccccc1)N1CCCC1",
    "growth inhibition": "-3.8% (inactive)"
  },
  {
    "COMPOUND": "O=S(=O)(NCCc1csc(-c2cccnc2)n1)c1ccc2c(c1)OCCO2",
    "growth inhibition": "8.38% (inactive)"
  },
  {
    "COMPOUND": "Cc1cc(S(=O)(=O)N2CCN(Cc3ccccc3)CC2)c(C)s1",
    "growth inhibition": "0.51% (inactive)"
  },
  {
    "COMPOUND": "COC1CCCCC1NS(=O)(=O)c1ccc(Cl)cc1 (centres undefined)",
    "growth inhibition": "2.45% (inactive)"
  },
  {
    "COMPOUND": "CCSc1oc(-c2ccco2)nc1S(=O)(=O)c1ccc(F)cc1",
    "growth inhibition": "-4.69% (inactive)"
  },
  {
    "COMPOUND": "O=C(CSc1nnc(COc2ccccc2)o1)Nc1nccs1",
    "growth inhibition": "4.11% (inactive)"
  },
  {
    "COMPOUND": "Cc1ccc(-c2nc(C3CCCN(S(=O)(=O)c4ccc(C)cc4)C3)no2)cc1 (centres undefined)",
    "growth inhibition": "9.18% (inactive)"
  },
  {
    "COMPOUND": "C=C(C)CSC1=C(C#N)C(c2ccccc2)CC(=O)N1 (centres undefined)",
    "growth inhibition": "-8.52% (inactive)"
  },
  {
    "COMPOUND": "Brc1cccc(-c2nc(-c3ccncc3)no2)c1",
    "growth inhibition": "7.9% (inactive)"
  },
  {
    "COMPOUND": "O=C(O)c1cccc(N2C(=O)C3CC=C(Cl)CC3C2=O)c1 (centres undefined)",
    "growth inhibition": "-10.2% (inactive)"
  },
  {
    "COMPOUND": "O=C(OCC(=O)N1CCN(C(=O)c2ccco2)CC1)C1=COCCO1",
    "growth inhibition": "-5.99% (inactive)"
  },
  {
    "COMPOUND": "O=C(CCS(=O)(=O)c1ccccc1)Nc1nccs1",
    "growth inhibition": "-10.5% (inactive)"
  },
  {
    "COMPOUND": "O=c1c2c3c(sc2nc2n1CCCCC2)CCCC3",
    "growth inhibition": "-15.5% (inactive)"
  },
  {
    "COMPOUND": "CCC1SC2=NC(C)=C(C(=O)OC)C(c3ccc(C(=O)OC)cc3)N2C1=O (centres undefined)",
    "growth inhibition": "35.7% (inactive)"
  },
  {
    "COMPOUND": "NC(=O)CCn1nc(-c2ccccc2)c2ccccc2c1=O",
    "growth inhibition": "13.7% (inactive)"
  },
  {
    "COMPOUND": "CSc1nc(SCC(=O)NCc2ccco2)c2c3c(sc2n1)COC(C)(C)C3",
    "growth inhibition": "-6.08% (inactive)"
  },
  {
    "COMPOUND": "CCOC(=O)/C=C1\\SCC(=O)N1CCOc1cccc(Br)c1",
    "growth inhibition": "-29.1% (inactive)"
  },
  {
    "COMPOUND": "O=C1CC(c2cccs2)CC(O)=C1C=NCCN1CCNCC1 (centres undefined)",
    "growth inhibition": "-6.3% (inactive)"
  },
  {
    "COMPOUND": "CC(=O)C1C(c2ccc(O)cc2)NC(=O)NC1(O)C(F)(F)F (centres undefined)",
    "growth inhibition": "-25.1% (inactive)"
  }
]

----------
assay: viability gain of MRP-1-high H69AR cells under doxorubicin, pilot screen, MRP-1 activator project, CellTiter-Glo, duplicate (AID 807); conditions: H69AR viability with doxorubicin, CellTiter-Glo luminescence; at 10 µM; stronger effect = higher value;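 also: compound pretreatment 18-22 h then 72 h combined with doxorubicin; 0% = doxorubicin alone and 100% = vehicle without doxorubicin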
Calls of active or inactive are those of the source.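 How the source made its calls: active means viability increase at or above a cutoff of the median across tested compounds plus 3 SD (cut at about 8.5% in these data, passing the limit was not always enough); inconclusive means some gains above the cutoff, reason not given; inactive means the rest.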
READOUT: viability increase

[
  {
    "COMPOUND": "Cn1c(NC(=O)c2cc(Cl)ccc2Cl)cc(=O)n(C)c1=O",
    "ENDPOINT RESULT": "-2.52% (inactive)"
  },
  {
    "COMPOUND": "Cc1cc(Nc2ccc(F)cc2F)n2nc(C)nc2n1",
    "ENDPOINT RESULT": "-1.98% (inactive)"
  },
  {
    "COMPOUND": "CC(=O)c1cc(CN2C(=O)CCC2=O)cs1",
    "ENDPOINT RESULT": "-0.46% (inactive)"
  },
  {
    "COMPOUND": "O=C(NC1CCCCC1)C(c1ccccc1)N1CCC2(CC1)OCCO2 (stereo not drawn)",
    "ENDPOINT RESULT": "-4.79% (inactive)"
  },
  {
    "COMPOUND": "CN(C)C(=O)CSc1nnc(-c2cccnc2)n1-c1ccccc1",
    "ENDPOINT RESULT": "-0.98% (inactive)"
  },
  {
    "COMPOUND": "CC(C)NS(=O)(=O)c1ccc(NC(=O)c2cccnc2)cc1",
    "ENDPOINT RESULT": "-0.51% (inactive)"
  },
  {
    "COMPOUND": "CCN1CCN(C(=O)C2c3cc(OC)c(OC)cc3C(=O)N(C)C2c2ccc(SC)cc2)CC1 (stereo not drawn)",
    "ENDPOINT RESULT": "-3.74% (inactive)"
  },
  {
    "COMPOUND": "CCn1nc(C(=O)NC2=NCCS2)c2ccccc2c1=O",
    "ENDPOINT RESULT": "-2.76% (inactive)"
  },
  {
    "COMPOUND": "O=C(CN1CCN(c2ccccn2)CC1)N(c1ccccc1)c1ccc2ccccc2c1",
    "ENDPOINT RESULT": "-1.57% (inactive)"
  },
  {
    "COMPOUND": "COc1ccc(C2c3c(oc4ccccc4c3=O)C(=O)N2c2ccccn2)cc1OC (stereo not drawn)",
    "ENDPOINT RESULT": "-6.93% (inactive)"
  },
  {
    "COMPOUND": "O=C(O)CCNc1cc2ccccc2cc1C(=O)O",
    "ENDPOINT RESULT": "-1.49% (inactive)"
  },
  {
    "COMPOUND": "CCC(C(=O)OC)n1cnc2c(nnn2-c2cccc(Cl)c2)c1=O (stereo not drawn)",
    "ENDPOINT RESULT": "1.21% (inactive)"
  },
  {
    "COMPOUND": "CC1(C)CCCC2=C1CC1C(=O)N(Cc3cccnc3)C(=O)C1C2 (stereo not drawn)",
    "ENDPOINT RESULT": "-0.2% (inactive)"
  },
  {
    "COMPOUND": "O=C(CNC(=O)c1ccco1)OCC(=O)c1ccccc1",
    "ENDPOINT RESULT": "-1.3% (inactive)"
  },
  {
    "COMPOUND": "COC(=O)c1cnn2c(C)c(Cc3cccc(F)c3)c(C)nc12",
    "ENDPOINT RESULT": "-5.7% (inactive)"
  },
  {
    "COMPOUND": "CCOC(=O)N1CCN(C(=O)c2oc3ccc(S(=O)(=O)N4CC(C)CC(C)C4)cc3c2C)CC1 (stereo not drawn)",
    "ENDPOINT RESULT": "-6.37% (inactive)"
  },
  {
    "COMPOUND": "CC1CCc2sc3nc(N4CCN(CCO)CC4)n4ncnc4c3c2C1 (stereo not drawn)",
    "ENDPOINT RESULT": "-7.82% (inactive)"
  },
  {
    "COMPOUND": "CC(=O)NCC(=O)N(c1c(C)n(C)n(-c2ccccc2)c1=O)C1(C(=O)NC2CCCC2)CCCCC1",
    "ENDPOINT RESULT": "-0.84% (inactive)"
  },
  {
    "COMPOUND": "COC(=O)c1ccccc1NC(=O)c1c(O)c2c([nH]c1=O)CCCC2",
    "ENDPOINT RESULT": "-5.62% (inactive)"
  },
  {
    "COMPOUND": "CCOc1ccc(C2CC(c3ccc(OC)c(OC)c3)n3nc(N)nc3N2)cc1 (stereo not drawn)",
    "ENDPOINT RESULT": "0.31% (inactive)"
  },
  {
    "COMPOUND": "O/N=C(/Cc1ccccn1)c1ccccc1",
    "ENDPOINT RESULT": "-1.19% (inactive)"
  },
  {
    "COMPOUND": "CC(=O)Nc1ccc(S(=O)(=O)N2CCN(c3cccc(C)c3C)CC2)cc1",
    "ENDPOINT RESULT": "-6.76% (inactive)"
  },
  {
    "COMPOUND": "CC(=O)c1ccc(NC(=O)CN2C(=O)COc3ccc(Cl)cc32)cc1",
    "ENDPOINT RESULT": "-2.36% (inactive)"
  }
]
